Provide the reported pIC50 of each item.
EXPERIMENTAL TARGET: NAMPT (Homo sapiens (Human))
ASSAY OVERVIEW: Assay 1: Biochemical Inhibition Assay (NAMPT enzymatic reaction, NMN quantified by mass spectrometry)
PARTICULARS: read-out: Biochemical (IC50)
In simple prose, pIC50 is minus the logarithm base ten of a concentration in moles per litre.

Enquiry: // fetch pIC50 for O=C(NCc1ccc(S(=O)(=O)[C@@H]2CCOC2)cc1)c1cc2cnccc2[nH]1 [Example 225] ; system: NAMPT (Homo sapiens (Human))
Return: 6.93

Enquiry: // fetch pIC50 for O=C(NCc1ccc(S(=O)(=O)N2CCC(O)CC2)cc1)c1ccc2nccn2c1 [Example 28] ; system: NAMPT (Homo sapiens (Human))
Return: 7.63

Enquiry: // fetch pIC50 for O=C(NCc1ccc(S(=O)(=O)N2CCC23COC3)cc1)c1cnc2[nH]ncc2c1 [Example 285] ; system: NAMPT (Homo sapiens (Human))
Return: 6.69

Enquiry: // fetch pIC50 for O=C(NCc1ccc(S(=O)(=O)C2CCN(S(=O)(=O)c3ccccc3)CC2)cc1)c1cnc2[nH]ncc2c1 [Example 352] ; system: NAMPT (Homo sapiens (Human))
Return: 7.74

Enquiry: // fetch pIC50 for O=C(NCc1ccc(S(=O)(=O)N2CCC3(CCNC3)CC2)cc1)c1ccc2nccn2c1 [Example 152] ; system: NAMPT (Homo sapiens (Human))
Return: 7.49

Enquiry: // fetch pIC50 for O=C(NCc1ccc(S(=O)(=O)N2CCC2)cc1)c1ccc2nccn2c1 [Example 240] ; system: NAMPT (Homo sapiens (Human))
Return: 7.39

Enquiry: // fetch pIC50 for CC(C)(C)OC(=O)N[C@@]12C[C@@H]1CN(S(=O)(=O)c1ccc(CNC(=O)c3ccc4nccn4c3)cc1)C2 (racemic) [Example 132] ; system: NAMPT (Homo sapiens (Human))
Return: 7.71

Enquiry: // fetch pIC50 for CC(C)N1CCC([S+]([O-])c2ccc(CNC(=O)c3ccc4nccn4c3)cc2)CC1 (stereo not shown) [Example 362] ; system: NAMPT (Homo sapiens (Human))
Return: 7.46

Enquiry: // fetch pIC50 for CC(C)CN1CCC([S+]([O-])c2ccc(CNC(=O)c3cnc4nccn4c3)cc2)CC1 (racemic) [Example 179] ; system: NAMPT (Homo sapiens (Human))
Return: 8.12

Enquiry: // fetch pIC50 for NC1CCN(S(=O)(=O)c2ccc(CNC(=O)c3ccc4nccn4c3)cc2)CC1 [Example 317] ; system: NAMPT (Homo sapiens (Human))
Return: 7.09

---

EXPERIMENTAL TARGET: NAMPT (Homo sapiens (Human), UniProt P43490)
Sequence (P43490 whole entry): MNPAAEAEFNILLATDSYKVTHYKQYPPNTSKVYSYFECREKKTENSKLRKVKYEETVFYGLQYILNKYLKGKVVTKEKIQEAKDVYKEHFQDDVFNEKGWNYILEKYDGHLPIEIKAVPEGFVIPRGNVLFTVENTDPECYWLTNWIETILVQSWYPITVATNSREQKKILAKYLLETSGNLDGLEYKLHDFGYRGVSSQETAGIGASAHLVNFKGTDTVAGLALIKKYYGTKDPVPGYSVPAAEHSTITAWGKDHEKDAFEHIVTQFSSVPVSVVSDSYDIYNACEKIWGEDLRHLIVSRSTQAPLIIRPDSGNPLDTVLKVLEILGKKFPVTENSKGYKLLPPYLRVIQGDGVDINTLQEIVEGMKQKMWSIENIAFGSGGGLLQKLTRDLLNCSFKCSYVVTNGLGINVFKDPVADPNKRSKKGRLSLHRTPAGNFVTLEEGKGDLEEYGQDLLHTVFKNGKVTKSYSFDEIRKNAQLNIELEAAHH
ASSAY OVERVIEW: Assay 1: Biochemical Inhibition Assay (NAMPT enzymatic reaction, NMN quantified by mass spectrometry);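 note: recombinant His-tagged human NAMPT preincubated with compound 15 min, then reacted 30 min at rt with 1 µM NAM, 100 µM PRPP, 2.5 mM ATP, NMN product read by RapidFire MS, normalized to L-Cystathionine internal standard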
PARTICULARS: read-out: Biochemical (IC50)
Provide the reported pIC50 of each item.
In simple prose, pIC50 is minus the logarithm base ten of a concentration in moles per litre.

Enquiry: For the compound "O=C(NCc1ccc(S(=O)(=O)N2CCCCC2)cc1)c1ccn2nccc2n1" , give its measured pIC50 value.
Return: 6.62

Enquiry: For the compound CCN1CCC([S+]([O-])c2ccc(CNC(=O)c3cnc4[nH]ncc4c3)cc2)CC1 (stereo not shown) , give its measured pIC50 value.
Return: 6.95

Enquiry: For the compound "O=C(NCc1ccc(S(=O)(=O)N2CC(O)C2)cc1)c1ccc2nccn2c1" , give its measured pIC50 value.
Return: 7.28

Enquiry: For the compound O=C(NCc1ccc(S(=O)(=O)C2CCOCC2)cc1)c1cnc2nccn2c1 [Example 199] , give its measured pIC50 value.
Return: 8.06

---

Provide the reported IC50 of each item.
EXPERIMENTAL TARGET: NAMPT (Homo sapiens (Human))
ASSAY OVERVIEW: Assay 1: Biochemical Inhibition Assay (NAMPT enzymatic reaction, NMN quantified by mass spectrometry)
PARTICULARS: read-out: Biochemical (IC50)
Hi! Could you send only the number? It should be in nM, unit omitted.

Enquiry: // fetch IC50 for O=C(NCc1ccc(S(=O)(=O)N2C[C@@H]3C[C@H]2CC3(F)F)cc1)c1ccc2nccn2c1 (racemic) [Example 141] ; system: NAMPT (Homo sapiens (Human))
Return: 14.8

Enquiry: // fetch IC50 for CC(=O)N1C[C@@H]2C[C@H]1CN2S(=O)(=O)c1ccc(CNC(=O)c2ccc3nccn3c2)cc1 (racemic) [Example 163] ; system: NAMPT (Homo sapiens (Human))
Return: 81.5

Enquiry: // fetch IC50 for O=C(NCc1ccc(S(=O)(=O)N2CC3CC2CC3F)cc1)c1ccc2nccn2c1 (racemic) [Example 164] ; system: NAMPT (Homo sapiens (Human))
Return: 8.1

Enquiry: // fetch IC50 for O=C(NCc1ccc(S(=O)(=O)N2CCC3(CCCN3)C2)cc1)c1ccc2nccn2c1 (centres unmarked) [Example 255] ; system: NAMPT (Homo sapiens (Human))
Return: 57

Enquiry: // fetch IC50 for CC(C)(C)OC(=O)N1CCC2(CC1)CCN(S(=O)(=O)c1ccc(CNC(=O)c3ccc4nccn4c3)cc1)CC2 [Example 121] ; system: NAMPT (Homo sapiens (Human))
Return: 5.8

Enquiry: // fetch IC50 for N#CCCNC1CCN(S(=O)(=O)c2ccc(CNC(=O)c3cnc4[nH]ncc4c3)cc2)CC1 [Example 57] ; system: NAMPT (Homo sapiens (Human))
Return: 64.8

Enquiry: // fetch IC50 for O=C(NCc1ccc(S(=O)(=O)C2CCN(C3CCOCC3)CC2)cc1)c1ccc2nccn2c1 [Example 214] ; system: NAMPT (Homo sapiens (Human))
Return: 13.6

Enquiry: // fetch IC50 for CCCC(=O)N1CCC(S(=O)(=O)c2ccc(CNC(=O)c3cc4ccncc4o3)cc2)CC1 [Example 314] ; system: NAMPT (Homo sapiens (Human))
Return: 20.3

---

EXPERIMENTAL TARGET: UniProtKB P43490
ASSAY OVERVIEW: Assay 1: Biochemical Inhibition Assay (NAMPT enzymatic reaction, NMN quantified by mass spectrometry)
PARTICULARS: read-out: Biochemical (IC50)
Provide the reported pIC50 of each item.
In simple prose, pIC50 is minus the logarithm base ten of a concentration in moles per litre.

Enquiry: For the compound O=C(NCc1ccc(S(=O)(=O)N2CC3CCC(C2)O3)cc1)c1ccc2nccn2c1 [Example 4] , give its measured pIC50 value.
Return: 7.14

Enquiry: For the compound O=C(NCc1ccc(S(=O)(=O)N2CC(F)(F)C2)cc1)c1cnc2[nH]ncc2c1 [Example 281] , give its measured pIC50 value.
Return: 7.02

Enquiry: For the compound O=C(NCc1ccc(S(=O)(=O)[C@H]2CCOC2)cc1)c1cc2cnccc2[nH]1 [Example 221] , give its measured pIC50 value.
Return: 6.90

---

EXPERIMENTAL TARGET: NAMPT (Homo sapiens (Human))
ASSAY OVERVIEW: Assay 1: Biochemical Inhibition Assay (NAMPT enzymatic reaction, NMN quantified by mass spectrometry)
PARTICULARS: read-out: Biochemical (IC50)
Provide the reported IC50 of each item.
Just the number plus its unit, please.

Enquiry: // fetch IC50 for CC(C)N1CCC([S+]([O-])c2ccc(CNC(=O)c3cc4cnccc4[nH]3)cc2)CC1 (stereo not drawn) ; system: NAMPT (Homo sapiens (Human))
Return: 60 nM

Enquiry: // fetch IC50 for O=C(NCc1ccc(S(=O)(=O)C2CCCOC2)cc1)c1cnc2[nH]ncc2c1 (racemic) [Example 155] ; system: NAMPT (Homo sapiens (Human))
Return: 219 nM

Enquiry: // fetch IC50 for CCN1CCC([S+]([O-])c2ccc(CNC(=O)c3cc4ccncc4o3)cc2)CC1 (stereo not drawn) ; system: NAMPT (Homo sapiens (Human))
Return: 68.3 nM

---

EXPERIMENTAL TARGET: UniProt P43490
ASSAY OVERVIEW: Assay 1: Biochemical Inhibition Assay (NAMPT enzymatic reaction, NMN quantified by mass spectrometry)
PARTICULARS: read-out: Biochemical (IC50)
ASSAY READOUT: pIC50
In simple prose, pIC50 is minus the logarithm base ten of a concentration in moles per litre.

Enquiry: For the molecule "COCCNC1CCN(S(=O)(=O)c2ccc(CNC(=O)c3cnc4[nH]ncc4c3)cc2)CC1" , give its measured pIC50 value.
Return: 7.08

Enquiry: For the molecule "CCC(=O)N1CCC(S(=O)(=O)c2ccc(CNC(=O)c3cc4ccncc4o3)cc2)CC1" , give its measured pIC50 value.
Return: 6.95

Enquiry: For the molecule CC(C)(C)OC(=O)N1CCCC2(C1)CN(S(=O)(=O)c1ccc(CNC(=O)c3ccc4nccn4c3)cc1)CCO2 (racemic) , give its measured pIC50 value.
Return: 7.76

Enquiry: For the molecule "CC(C)(C)OC(=O)N1CCC2(CC1)CCN(S(=O)(=O)c1ccc(CNC(=O)c3ccc4nccn4c3)cc1)C2" , give its measured pIC50 value.
Return: 7.79

Enquiry: For the molecule "O=C(NCc1ccc(S(=O)(=O)N2CCN(C3COC3)CC2)cc1)c1ccc2nccn2c1" , give its measured pIC50 value.
Return: 7.53
